target: GST-MCL-1 (Homo sapiens, UniProt Q07820); assay: TR-FRET MCL-1 binding assay (competition with probe F-Bak); settings: MCL-1 Binding Ki (nM, 10% HS), in the presence of 10% HS (human serum)
Sequence (Q07820 whole entry): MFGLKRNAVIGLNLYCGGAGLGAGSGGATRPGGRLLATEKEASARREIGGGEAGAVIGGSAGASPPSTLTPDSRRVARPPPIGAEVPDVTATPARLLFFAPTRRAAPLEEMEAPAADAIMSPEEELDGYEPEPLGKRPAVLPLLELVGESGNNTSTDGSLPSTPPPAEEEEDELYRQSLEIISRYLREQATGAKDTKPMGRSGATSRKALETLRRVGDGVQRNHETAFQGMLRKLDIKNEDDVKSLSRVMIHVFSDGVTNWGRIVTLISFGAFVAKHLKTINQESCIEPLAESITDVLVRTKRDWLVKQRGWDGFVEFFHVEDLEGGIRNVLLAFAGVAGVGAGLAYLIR
outcome-measure: log10 Ki (log10 of the value in nM)

1) COCCOCCOCCOCCOC1(c2nccc(COc3ccc4cc3C[C@H](C(=O)O)Oc3ncnc5sc(-c6ccc(F)cc6)c(c35)-c3c(C)c(Cl)c(c(Cl)c3C)O[C@H](CN3CCN(C)CC3)CO4)n2)CCC1 = -0.78
2) COCCOCCOCCOCCOCCOCCOC1(c2nccc(COc3ccc4cc3C[C@H](C(=O)O)Oc3ncnc5sc(-c6ccc(F)cc6)c(c35)-c3c(C)c(Cl)c(c(Cl)c3C)O[C@H](CN3CCN(C)CC3)CO4)n2)CCCC1 = -0.92
3) Cc1c(Cl)c2c(Cl)c(C)c1-c1c(-c3ccc(F)cc3)sc3ncnc(c13)O[C@@H](C(=O)O)Cc1cc(ccc1OCc1ccnc(N3CC4(C3)CC(F)(F)C4)n1)OC[C@@H](CN1CCN(C)CC1)O2 = 0.73
4) Cc1c(Cl)c2c(Cl)c(C)c1-c1c(-c3ccc(F)cc3)sc3ncnc(c13)O[C@@H](C(=O)O)Cc1cc(ccc1OCc1ccnc(C3CCS(=O)(=O)C3)n1)OC[C@@H](CN1CCN(C)CC1)O2 (some centres unmarked) = -0.68
5) CO[C@@H]1CO[C@H]2[C@@H]1OC[C@H]2Oc1nccc(COc2ccc3cc2C[C@H](C(=O)O)Oc2ncnc4sc(-c5ccc(F)cc5)c(c24)-c2c(C)c(Cl)c(c(Cl)c2C)O[C@H](CN2CCN(C)CC2)CO3)n1 = -1.39

====

target: GST-MCL-1 (Homo sapiens); test: TR-FRET MCL-1 binding assay (competition with probe F-Bak); conditions: MCL-1 Binding Ki (nM, 10% HS), in the presence of 10% HS (human serum)
outcome-measure: Ki (nM)

1) COCCOCCOCCN(CCOCCOCCOC)c1nccc(COc2ccc3cc2C[C@H](C(=O)O)Oc2ncnc4sc(-c5ccc(F)cc5)c(c24)-c2c(C)c(Cl)c(c(Cl)c2C)O[C@H](CN2CCN(C)CC2)CO3)n1 = 4.34
2) COCCOCCOCCOCCN(CCOCCOCCOCCOC)c1nccc(COc2ccc3cc2C[C@H](C(=O)O)Oc2ncnc4sc(-c5ccc(F)cc5)c(c24)-c2c(C)c(Cl)c(c(Cl)c2C)O[C@H](CN2CCN(C)CC2)CO3)n1 = 2.43
3) Cc1c(Cl)c2c(Cl)c(C)c1-c1c(-c3ccc(F)cc3)sc3ncnc(c13)O[C@@H](C(=O)O)Cc1cc(ccc1OCc1ccnc(-c3ccc(OC[C@@H]4CN(C)CCO4)cc3)n1)OC[C@@H](CN1CCN(C)CC1)O2 = 0.168

====

molecular target: GST-MCL-1 (Homo sapiens); experiment: TR-FRET MCL-1 binding assay (competition with probe F-Bak); settings: without HS; read-out: MCL-1 Binding Ki
pKi: −log10 of the molar value.
outcome-measure: pKi

1. COCCOCCOCCOCCOCC1(F)CC=C(c2nccc(COc3ccc4cc3C[C@H](C(=O)O)Oc3ncnc5sc(-c6ccc(F)cc6)c(c35)-c3c(C)c(Cl)c(c(Cl)c3C)O[C@H](CN3CCN(C)CC3)CO4)n2)CC1 (single isomer, unassigned) [Example 106] = 10.44
2. Cc1c(Cl)c2c(Cl)c(C)c1-c1c(-c3ccc(F)cc3)sc3ncnc(c13)O[C@@H](C(=O)O)Cc1cc(ccc1OCc1ccnc(-c3ccc(OCC4COCCOCCOCCOCCO4)cc3)n1)OC[C@@H](CN1CCN(C)CC1)O2 (stereo partly drawn) [Example 107] = 10.59
3. COCCOCCOCCOCCOCCOCCOC1(c2nccc(COc3ccc4cc3C[C@H](C(=O)O)Oc3ncnc5sc(-c6ccc(F)cc6)c(c35)-c3c(C)c(Cl)c(c(Cl)c3C)O[C@H](CN3CCN(C)CC3)CO4)n2)CCCC1 [Example 74] = 10.08
4. Cc1c(Cl)c2c(Cl)c(C)c1-c1c(-c3ccc(F)cc3)sc3ncnc(c13)O[C@@H](C(=O)O)Cc1cc(ccc1OCc1ccnc(N3CCO[C@H](COCCOCC4COCCO4)C3)n1)OC[C@@H](CN1CCN(C)CC1)O2 (stereo partly drawn) [Example 103] = 10.48
5. Cc1c(Cl)c2c(Cl)c(C)c1-c1c(-c3ccc(F)cc3)sc3ncnc(c13)O[C@@H](C(=O)O)Cc1cc(ccc1OCc1ccnc(-c3ccc(OC(=O)N4CCOCC4)cc3)n1)OC[C@@H](CN1CCN(C)CC1)O2 [Example 151] = 11.00
6. Cc1c(Cl)c2c(Cl)c(C)c1-c1c(-c3ccc(F)cc3)sc3ncnc(c13)O[C@@H](C(=O)O)Cc1cc(ccc1OCc1ccnc(-c3ccc(CCC(=O)O)cc3)n1)OC[C@@H](CN1CCN(C)CC1)O2 [Example 20] = 11.15

====

This listing pairs compounds with measured Ki.
target: GST-MCL-1 (Homo sapiens); test: TR-FRET MCL-1 binding assay (competition with probe F-Bak); details: without HS; read-out: MCL-1 Binding Ki
outcome-measure: Ki

1) COC[C@H](COc1ccc(-c2nccc(COc3ccc4cc3C[C@H](C(=O)O)Oc3ncnc5sc(-c6ccc(F)cc6)c(c35)-c3c(C)c(Cl)c(c(Cl)c3C)O[C@H](CN3CCN(C)CC3)CO4)n2)cc1)OC = 0.031 nM
2) COCCOCCOCCOCCOCCO[C@H]1CC[C@H](c2nccc(COc3ccc4cc3C[C@H](C(=O)O)Oc3ncnc5sc(-c6ccc(F)cc6)c(c35)-c3c(C)c(Cl)c(c(Cl)c3C)O[C@H](CN3CCN(C)CC3)CO4)n2)CC1 = 0.015 nM
3) Cc1c(Cl)c2c(Cl)c(C)c1-c1c(-c3ccc(F)cc3)sc3ncnc(c13)O[C@@H](C(=O)O)Cc1cc(ccc1OCc1ccnc(C3(COCCOC[C@H]4COCCO4)CCCCC3)n1)OC[C@@H](CN1CCN(C)CC1)O2 = 0.229 nM
4) Cc1c(Cl)c2c(Cl)c(C)c1-c1c(-c3ccc(F)cc3)sc3ncnc(c13)O[C@@H](C(=O)O)Cc1cc(ccc1OCc1ccnc(-c3cccc(CP(C)(C)=O)c3)n1)OC[C@@H](CN1CCN(C)CC1)O2 = 0.011 nM
5) COCCOCCOCCC1CCN(C[C@@H]2COc3ccc(OCc4ccnc(-c5ccccc5OC)n4)c(c3)C[C@H](C(=O)O)Oc3ncnc4sc(-c5ccc(F)cc5)c(c34)-c3ccc(c(Cl)c3C)O2)CC1 (atropisomer, axis not shown) [Example 27] = 0.987 nM
6) COCCOCCOCCOc1cncc(COc2ccc3cc2C[C@H](C(=O)O)Oc2ncnc4sc(-c5ccc(F)cc5)c(c24)-c2c(C)c(Cl)c(c(Cl)c2C)O[C@H](CN2CCN(C)CC2)CO3)n1 = 0.151 nM

====

biological target: UniProt:Q07820; experiment: TR-FRET MCL-1 binding assay (competition with probe F-Bak); conditions: without HS; read-out: MCL-1 Binding Ki
Below, each of the molecules is paired with its reported Ki value.
outcome-measure: Ki

1) Cc1c2ccc(c1Cl)O[C@H](CN1CCN(C)CC1)COc1ccc(OCc3ccnc(-c4ccc(OC[C@H](O)CO)cc4)n3)c(c1)C[C@H](C(=O)O)Oc1ncnc3sc(-c4ccc(F)cc4)c-2c13 (atropisomer, axis not shown) = 0.011 nM
2) Cc1c(Cl)c2c(Cl)c(C)c1-c1c(-c3ccc(F)cc3)sc3ncnc(c13)O[C@@H](C(=O)O)Cc1cc(ccc1OCc1ccnc(-c3ccc(OC[C@H](O)CO)cc3)n1)OC[C@@H](CN1CCN(C)CC1)O2 = 0.015 nM
3) Cc1c(Cl)c2c(Cl)c(C)c1-c1c(-c3ccc(F)cc3)sc3ncnc(c13)O[C@@H](C(=O)O)Cc1cc(ccc1OCc1ccnc(N3CC4C(C3)C4(F)F)n1)OC[C@@H](CN1CCN(C)CC1)O2 (some centres unmarked) = 0.088 nM
4) Cc1c(Cl)c2c(Cl)c(C)c1-c1c(-c3ccc(F)cc3)sc3ncnc(c13)O[C@@H](C(=O)O)Cc1cc(ccc1OCc1ccnc(N3CCC(CC(=O)O)CC3)n1)OC[C@@H](CN1CCN(C)CC1)O2 = 0.039 nM
5) Cc1c(Cl)c2c(Cl)c(C)c1-c1c(-c3ccc(F)cc3)sc3ncnc(c13)O[C@@H](C(=O)O)Cc1cc(ccc1OCc1ccnc(-c3ccc(OCC4COCCOCCOCCOCCOCCO4)cc3)n1)OC[C@@H](CN1CCN(C)CC1)O2 (some centres unmarked) = 0.003 nM
6) COCCOCCOCCOCCOCCOCCOCC1(c2nccc(COc3ccc4cc3C[C@H](C(=O)O)Oc3ncnc5sc(-c6ccc(F)cc6)c(c35)-c3c(C)c(Cl)c(c(Cl)c3C)O[C@H](CN3CCN(C)CC3)CO4)n2)CCC1 = 0.042 nM
7) Cc1c(Cl)c2c(Cl)c(C)c1-c1c(-c3ccc(F)cc3)sc3ncnc(c13)O[C@@H](C(=O)O)Cc1cc(ccc1OCc1ccnc(-c3cccc(CN4CCOCC4)c3)n1)OC[C@@H](CN1CCN(C)CC1)O2 = 0.002 nM
8) COCCOCCOC[C@H]1CC[C@H](c2nccc(COc3ccc4cc3C[C@H](C(=O)O)Oc3ncnc5sc(-c6ccc(F)cc6)c(c35)-c3c(C)c(Cl)c(c(Cl)c3C)O[C@H](CN3CCN(C)CC3)CO4)n2)CC1 = 0.005 nM
9) COCCOCCOC[C@@H]1CC=C(c2nccc(COc3ccc4cc3C[C@H](C(=O)O)Oc3ncnc5sc(-c6ccc(F)cc6)c(c35)-c3c(C)c(Cl)c(c(Cl)c3C)O[C@H](CN3CCN(C)CC3)CO4)n2)CC1 = 0.027 nM
10) COCCOCCOC[C@H]1CC=C(c2nccc(COc3ccc4cc3C[C@H](C(=O)O)Oc3ncnc5sc(-c6ccc(F)cc6)c(c35)-c3c(C)c(Cl)c(c(Cl)c3C)O[C@H](CN3CCN(C)CC3)CO4)n2)CC1 = 0.028 nM
11) COCCOCCOCCOCCOCCOCCOCCOCCOCCOCCOCCNC(=O)c1ccc(-c2nccc(COc3ccc4cc3C[C@H](C(=O)O)Oc3ncnc5sc(-c6ccc(F)cc6)c(c35)-c3c(C)c(Cl)c(c(Cl)c3C)O[C@H](CN3CCN(C)CC3)CO4)n2)cc1 = 0.018 nM

Data provenance is patent US20250313572A1.
